experimentalConditions: buffer; pH 7.4; 200.0 µM
readoutKind: solubility kinetic

Recorded results for 4 molecules are shown here.
{"columns": ["molecule", "solubility kinetic"],
 "data": [
  ["O=C(NCCCNC(=O)c1c(F)cccc1F)c1c(F)cccc1F", "> 53.1 µg/mL"],
  ["CCC(C)NC(=O)CN1C(=O)NC2NC(=O)NC21 (configuration not stated)", "> 38.3 µg/mL"],
  ["Cc1ccc(C(=O)NCC(=O)N(C)Cc2cccc(F)c2)s1", "> 48.1 µg/mL"],
  ["Cc1cc(C)n(Cc2cc(C(=O)O)c3ccccc3n2)n1", "> 42.2 µg/mL"]
]}

[ask] What does the data say about its solubility kinetic? Entry: O=C(COC(=O)c1cc[n+]([O-])cc1)Nc1cccc(F)c1
[reply] > 43.5 µg/mL

[ask] What does the data say about its solubility kinetic? Entry: Cc1ccc(S(=O)(=O)N2CCC(N3CCC(C)CC3)CC2)cc1
[reply] > 50.5 µg/mL

[ask] What does the data say about its solubility kinetic? Entry: CCCN(CCC)C(=O)Nc1ccc(F)cc1F
[reply] > 38.4 µg/mL

* * *

experimentalConditions: buffer; pH 7.4; 200.0 µM
readoutKind: solubility kinetic (µg/mL)
Write the number in µg/mL without appending the unit.

Recorded results for 3 molecules are shown here.
{"columns": ["molecule", "scaleUnit", "solubility kinetic"],
 "data": [
  ["Cc1cccc(Oc2c([N+](=O)[O-])c(=O)n(C)c3ccccc23)c1", "µg/mL", 6.6],
  ["Cc1cc(NC(=O)COc2ccc(F)c(Cl)c2)no1", "µg/mL", 4.8],
  ["CC(C)(C)NC(=O)NCc1cccnc1", "µg/mL", 29.4]
]}

[ask] What does the data say about its solubility kinetic? Entry: COc1cccc2c1OCC(C(=O)Nc1nccs1)=C2
[reply] 18.2

[ask] What does the data say about its solubility kinetic? Entry: CC(C)S(=O)(=O)c1cnc(-c2cccnc2)nc1N
[reply] 37.7

[ask] What does the data say about its solubility kinetic? Entry: O=c1cnc2ccccc2n1Cc1ccccc1C(F)(F)F
[reply] 43.1

[ask] What does the data say about its solubility kinetic? Entry: CC(=O)c1ccc(NC(=O)C(C)OC(=O)/C=C/c2ccco2)cc1 (centres undefined)
[reply] 21.7

* * *

experimentalConditions: buffer; pH 7.4; 200.0 µM
Recorded measurements of solubility kinetic, one per entry
Write the number in µg/mL without appending the unit.

[ask] What does the data say about its solubility kinetic? Entry: FC(F)(F)C1=Nc2cccc3cccc(c23)N1
[reply] 13.5

[ask] What does the data say about its solubility kinetic? Entry: Oc1cccc(Nc2nc(-c3ccccc3)nc3ccccc23)c1
[reply] 2.2

[ask] What does the data say about its solubility kinetic? Entry: C/C(Cl)=C/Cn1c(N2CCCC2)nc2c1c(=O)[nH]c(=O)n2C
[reply] 45

* * *

experimentalConditions: buffer; pH 7.4; 200.0 µM
Recorded measurements of solubility kinetic, one per entry

Recorded results for 3 compounds are shown here.
{"columns": ["compound", "solubility kinetic"],
 "data": [
  ["O=C(NC1CC1)c1cccc(Oc2ccccc2)c1", "> 38 µg/mL"],
  ["O=C(O)c1ccc(N2C(=O)c3cccc4cccc(c34)C2=O)cc1", "> 47.6 µg/mL"],
  ["Cc1ccc(N=C2NC(=O)/C(=C/c3cccnc3)S2)cc1C", "< 0.2 µg/mL"]
]}

[ask] What does the data say about its solubility kinetic? Entry: Nc1nccnc1C(=O)OCC(=O)NNC(=O)c1ccccc1
[reply] > 47.3 µg/mL

[ask] What does the data say about its solubility kinetic? Entry: O=C(Nc1ccc2ccccc2n1)Nc1cccs1
[reply] < 0.2 µg/mL

[ask] What does the data say about its solubility kinetic? Entry: Cc1ccc(OCC(O)Cn2nc(C)cc2C)cc1 (configuration not stated)
[reply] > 39.1 µg/mL

[ask] What does the data say about its solubility kinetic? Entry: CC(C)CC(=O)Nc1ccc(-c2cn3cccnc3n2)cc1
[reply] > 44.2 µg/mL

* * *

experimentalConditions: buffer; pH 7.4; 200.0 µM
Recorded measurements of solubility kinetic, one per entry

Recorded results for 6 molecules are shown here.
{"columns": ["molecule", "solubility kinetic"],
 "data": [
  ["N#CC1(NC(=O)COC(=O)c2nccnc2N)CCCCC1", "> 45.5 µg/mL"],
  ["Cc1ccc2nc(NC(=O)c3ccccc3F)sc2c1", "< 0.3 µg/mL"],
  ["CC(=O)c1cccc(NC(=O)CN2C(=O)NC(C)(C)C2=O)c1", "> 45.5 µg/mL"],
  ["COC(=O)c1c(C)[nH]c(C(=O)C(C)OC(=O)C2CC2C)c1C (configuration not stated)", "> 46.1 µg/mL"],
  ["CCOC(=S)N/C(=N\\S(C)(=O)=O)c1ccccc1", "> 43 µg/mL"],
  ["O=C(NCCS(=O)(=O)N1CCCCCC1)c1ccccc1", "> 46.6 µg/mL"]
]}

[ask] What does the data say about its solubility kinetic? Entry: COc1ccc(CN(C)CC(=O)N2CCc3ccccc3C2)cc1
[reply] > 48.7 µg/mL

[ask] What does the data say about its solubility kinetic? Entry: Cc1cccc(NC(=O)c2cc[n+]([O-])cc2)c1C
[reply] > 36.3 µg/mL

[ask] What does the data say about its solubility kinetic? Entry: Cc1ccc(NC(=O)c2cccnc2)cc1S(=O)(=O)N(C)C
[reply] > 47.9 µg/mL

[ask] What does the data say about its solubility kinetic? Entry: Cl.NCCOc1ccccc1OCCN
[reply] > 40.4 µg/mL

[ask] What does the data say about its solubility kinetic? Entry: Cc1[nH]c2ccc(C(=O)N3CCN(Cc4ccccc4)CC3)cc2c1C
[reply] > 52.1 µg/mL

[ask] What does the data say about its solubility kinetic? Entry: O=C(CSc1nc2ccccc2s1)Nc1ccc(C(=O)O)cc1
[reply] > 51.7 µg/mL

* * *

experimentalConditions: buffer; pH 7.4; 200.0 µM
readoutKind: solubility kinetic

{"columns": ["compound", "observedMeasurement"],
 "data": [
  ["O=c1[nH]c2ccccc2n1C1=CCNCC1", "> 32.3 µg/mL"],
  ["O=C1c2ccccc2NC(c2cccc(O)c2)N1O (centres undefined)", "> 38.4 µg/mL"],
  ["COCCn1c(SCC(=O)NNC(=O)c2ccccc2)nc2ccccc21", "> 57.7 µg/mL"],
  ["OCC1OC(Oc2c[nH]c3ccccc23)C(O)C(O)C1O (centres undefined)", "> 44.3 µg/mL"],
  ["CCC(C)N1CNc2c(c(=O)[nH]c(=S)n2-c2cccc(C)c2)C1 (centres undefined)", "> 49.6 µg/mL"]
]}

[ask] What does the data say about its solubility kinetic? Entry: CC(C)(C)c1ccccc1NC(=S)NC1CCCCC1
[reply] 2.5 µg/mL

[ask] What does the data say about its solubility kinetic? Entry: Cc1ccccc1NC(=O)CSc1nc(O)cc(=O)n1C
[reply] 35.6 µg/mL

[ask] What does the data say about its solubility kinetic? Entry: CCCN(C(=O)CSc1ncccn1)C1CCS(=O)(=O)C1 (centres undefined)
[reply] > 49.4 µg/mL

[ask] What does the data say about its solubility kinetic? Entry: CC(C)(C)c1ccc(-c2ncccc2O)cc1.Cl
[reply] 10.6 µg/mL

* * *

experimentalConditions: buffer; pH 7.4; 200.0 µM
readoutKind: solubility kinetic

[ask] What does the data say about its solubility kinetic? Entry: CCCCNc1cc(C(=O)O)cc(S(N)(=O)=O)c1Oc1ccccc1
[reply] > 0.0547 mg/mL

[ask] What does the data say about its solubility kinetic? Entry: COC(=O)C1CCN(C(=O)c2cc(-c3ccco3)nc3ccccc23)CC1
[reply] > 0.0547 mg/mL

[ask] What does the data say about its solubility kinetic? Entry: Cc1ccc(/C=N\NC(=O)C2CC(=O)N(c3ccccc3)C2)o1 (configuration not stated)
[reply] > 0.0467 mg/mL

[ask] What does the data say about its solubility kinetic? Entry: COC(=O)c1ccc(NC(=O)[C@H](C)NC(N)=O)cc1
[reply] > 0.0398 mg/mL

[ask] What does the data say about its solubility kinetic? Entry: CCCC(CCC(=O)Nc1cccc([N+](=O)[O-])c1)C(=O)O (configuration not stated)
[reply] > 0.0441 mg/mL

[ask] What does the data say about its solubility kinetic? Entry: CCCOc1ccc(-c2c(=O)n(O)c3ccccc3[n+]2[O-])cc1
[reply] > 0.0468 mg/mL

* * *

experimentalConditions: buffer; pH 7.4; 200.0 µM
readoutKind: solubility kinetic

{"columns": ["molecule", "solubility kinetic"],
 "data": [
  ["COc1cc2nc(Nc3ccc(F)cc3)nc(N)c2cc1OC.Cl", "> 52.6 µg/mL"]
]}

// switching to the query molecule
[ask] What does the data say about its solubility kinetic? Entry: Cc1cc(C)n(-c2ccnc3cc(Cl)ccc23)n1
[reply] > 38.7 µg/mL

* * *

Recorded measurements of solubility kinetic, one per entry
experimentalConditions: buffer; pH 7.4; 200.0 µM

{"columns": ["molecule", "solubility kinetic"],
 "data": [
  ["Cn1cc(S(=O)(=O)NCCc2ccccc2)c(=O)n(C)c1=O", "> 48.5 µg/mL"],
  ["O=C(O)CCc1ccc(-c2cccs2)n1CCc1ccccc1", "> 48.8 µg/mL"],
  ["CCOc1ccc(N2CC(C(=O)N3CC(C)OC(C)C3)CC2=O)cc1 (configuration not stated)", "> 52 µg/mL"]
]}

[ask] What does the data say about its solubility kinetic? Entry: Cc1ccc(NC(=O)CSc2nccn2Cc2ccco2)c(C)c1
[reply] 46.8 µg/mL

[ask] What does the data say about its solubility kinetic? Entry: O=C(COc1ncnc2ccccc12)NCCc1ccc(F)cc1
[reply] 41.9 µg/mL

[ask] What does the data say about its solubility kinetic? Entry: Cc1ccc(NC(=O)c2cc3ccccc3oc2=N)cc1
[reply] < 0.3 µg/mL

[ask] What does the data say about its solubility kinetic? Entry: Cc1ccc(CCC(=O)NCc2ccccc2)o1
[reply] > 36.5 µg/mL
